- experimental.system: recombinant human cGAS (Homo sapiens (Human))
- experimental.details: In vitro inhibition assay of cGAS activity (cGAMP production, RapidFire mass spectrometry)
- Assay type: biochemical
- applied.conditions: 10 nM recombinant human cGAS, 60 nM 75-bp dsDNA, ATP, GTP, room temperature 3 hours, read-out: IC50 (μM), In vitro inhibition assay for Compounds 95-348
reported.property: IC50 (µM)

Example results:
O=C(O)Cn1cc(-n2cc(-c3cn[nH]c3)c3ccc(Cl)c(Cl)c32)nn1 [Example 212] = 0.0125
C[C@H](O)C(=O)NCc1[nH]c2c(Cl)c(Cl)ccc2c1-c1cn[nH]c1 [Example 168] = 0.0463
Cn1cc(-n2cc(-c3cn[nH]c3)c3ccc(Cl)cc32)nn1 [Example 230] = 0.0693
CC(CO)CNc1cc(Cl)c(Cl)c2[nH]cc(-c3cn[nH]c3)c12 (stereo not shown) [Example 205] = 0.0287
OCC(CO)COc1cc(Cl)c(Cl)c2[nH]cc(-c3cn[nH]c3)c12 [Example 194] = 0.0184

1: CC(=O)N1CCn2c(c(-c3cn[nH]c3)c3c(OCC(N)=O)cc(Cl)c(Cl)c32)C1 [Example 268]
2: CC(=O)NCc1[nH]c2c(Cl)c(Cl)cc(OCC#N)c2c1-c1cn[nH]c1 [Example 153]
3: O=C1NCC(C(=O)N2CCn3c(c(-c4cn[nH]c4)c4ccc(Cl)c(Cl)c43)C2)O1 (stereo not shown) [Example 180]
4: CN1C(=O)CCC1C(=O)N1CCn2c(c(-c3cn[nH]c3)c3ccc(Cl)c(Cl)c32)C1 (stereo not shown) [Example 326]
5: COC1(C(=O)N2CCn3c(c(-c4cn[nH]c4)c4ccc(Cl)c(Cl)c43)C2)CCOC1 (stereo not shown) [Example 334]
Query :: Ascending by IC50, please: list the molecules accordingly. Write out the labels following the order that was asked for.
Result :: 2, 3, 1, 4, 5
(2: 0.00511 µM, 3: 0.018 µM, 1: 0.0385 µM, 4: 0.0627 µM, 5: 0.0985 µM)

====

# IC50 annotations
- Test system: cGAS activity in THP1 cells (IFNb as marker)
- experimental.details: Cellular assay to measure cGAS activity (IFNb production in PMA-differentiated THP1 cells stimulated by RDG-Adenovirus-GFP)
- Assay type: cell-based, human
- applied.conditions: Homo sapiens, THP-1, THP1 cells, PMA differentiated, RDG-Adenovirus-GFP 1000 MOI, IFNb AlphaLISA, overnight incubation; read-out: IC50 (μM), Cellular assay for Compounds 95-348

Record Cn1ncnc1COCC(=O)N1CCn2c(c(-c3cn[nH]c3)c3c(OCC#N)cc(Cl)c(Cl)c32)C1 ; system cGAS activity in THP1 cells (IFNb as marker); IC50 = > 10 µM

Record Cc1nc(C)n(CC(=O)N2CCn3c(c(-c4cn[nH]c4)c4c(OCC#N)cc(Cl)c(Cl)c43)C2)n1 ; system cGAS activity in THP1 cells (IFNb as marker); IC50 = > 10 µM

Record O=C(CO)Nc1cc(Cl)c(Cl)c2c1c(-c1cn[nH]c1)c1n2CCN(C(=O)CO)C1 ; system cGAS activity in THP1 cells (IFNb as marker); IC50 = > 10 µM

====

- experimental.system: recombinant human cGAS (Homo sapiens (Human), UniProt Q8N884)
- Sequence (Q8N884 whole entry): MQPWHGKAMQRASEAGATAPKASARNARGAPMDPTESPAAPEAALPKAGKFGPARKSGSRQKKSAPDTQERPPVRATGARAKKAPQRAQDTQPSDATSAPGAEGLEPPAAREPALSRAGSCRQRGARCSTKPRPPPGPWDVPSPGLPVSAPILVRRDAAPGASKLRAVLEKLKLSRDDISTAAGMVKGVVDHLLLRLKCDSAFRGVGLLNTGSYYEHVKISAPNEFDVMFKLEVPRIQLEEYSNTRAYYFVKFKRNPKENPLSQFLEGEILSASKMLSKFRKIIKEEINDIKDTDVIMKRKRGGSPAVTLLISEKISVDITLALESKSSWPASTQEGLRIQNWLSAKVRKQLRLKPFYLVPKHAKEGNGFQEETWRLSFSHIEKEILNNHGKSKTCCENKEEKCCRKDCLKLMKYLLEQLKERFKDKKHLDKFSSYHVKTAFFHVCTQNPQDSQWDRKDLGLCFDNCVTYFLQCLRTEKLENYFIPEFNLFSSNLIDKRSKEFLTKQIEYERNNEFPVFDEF
- experimental.details: In vitro inhibition assay of cGAS activity (cGAMP production, RapidFire mass spectrometry)
- Assay type: biochemical
- applied.conditions: 10 nM recombinant human cGAS, 60 nM 75-bp dsDNA, ATP, GTP, room temperature 3 hours, read-out: IC50 (μM), In vitro inhibition assay for Compounds 1-94
reported.property: IC50 (µM)

NC(=O)COc1cc(Cl)c(F)c2[nH]cc(-c3cn[nH]c3)c12 = 0.0463
CN1CCn2c(c(-c3cn[nH]c3)c3c(NCC#N)cc(Cl)c(Cl)c32)C1=O = 0.0485
CCOc1cc(Cl)c(Cl)c2c1c(-c1cn[nH]c1)c1n2CCNC1 = 0.0587

====

- experimental.system: recombinant human cGAS (Homo sapiens (Human), UniProt Q8N884)
- experimental.details: In vitro inhibition assay of cGAS activity (cGAMP production, RapidFire mass spectrometry)
- Assay type: biochemical
- applied.conditions: 10 nM recombinant human cGAS, 60 nM 75-bp dsDNA, ATP, GTP, room temperature 3 hours, read-out: IC50 (μM), In vitro inhibition assay for Compounds 1-94
reported.property: IC50 (µM)

Example results:
Clc1ccc2c(-n3ccnc3)c[nH]c2c1Cl = 0.0447
N#CCOc1cc(Cl)c(Cl)c2[nH]cc(-c3cn[nH]c3)c12 = 0.0158
Clc1ccc2c(-c3cn[nH]c3)c(CNc3ccon3)[nH]c2c1Cl = 0.0578
O=C(O)CCc1[nH]c2c(Cl)c(Cl)ccc2c1-c1cn[nH]c1 = 0.0381
O=C(O)CCn1cc(-c2cn[nH]c2)c2ccc(Cl)c(Cl)c21 = 0.0737
N#CCOc1cc(Cl)c(Cl)c2[nH]cc(-n3ccnc3)c12 = 0.0326

A: O=C(C1COCCO1)N1CCn2c(c(-c3cn[nH]c3)c3ccc(Cl)c(Cl)c32)C1 (stereo not shown)
B: O=C(O)C1CCn2c(c(-c3cn[nH]c3)c3ccc(Cl)c(Cl)c32)C1 (single isomer, unassigned) [Example 13]
C: N#CCOc1cc(Cl)c(F)c2[nH]cc(-c3cn[nH]c3)c12
D: CN1CCn2c(c(-c3cn[nH]c3)c3c(NCCO)cc(Cl)c(Cl)c32)C1=O
E: Cc1c(-c2cn[nH]c2)c2ccc(Cl)c(Cl)c2n1C
Query :: Parameters: sort_field (IC50), sort_dir (desc). Write out the labels following the order that was asked for.
Result :: E, A, D, C, B
(E: 0.0614 µM, A: 0.0427 µM, D: 0.029 µM, C: 0.0173 µM, B: 0.0117 µM)

I: CC(=O)N1CCn2c(c(-c3cn[nH]c3)c3ccc(Cl)c(Cl)c32)C1
II: CC(C#N)Oc1cc(Cl)c(Cl)c2[nH]cc(-c3cn[nH]c3)c12 (stereo not shown)
III: CC(=O)NC1CCc2c(-c3cn[nH]c3)c3ccc(Cl)c(Cl)c3n2C1 (single isomer, unassigned) [Example 20]
IV: O=C(CO)Nc1cc(Cl)c(Cl)c2[nH]cc(-c3cn[nH]c3)c12
Query :: Parameters: sort_field (IC50), sort_dir (desc). Write out the labels following the order that was asked for.
Result :: III, II, I, IV
(III: 0.155 µM, II: 0.0855 µM, I: 0.0404 µM, IV: 0.0158 µM)

====

- Test system: cGAS activity in THP1 cells (IFNb as marker)
- experimental.details: Cellular assay to measure cGAS activity (IFNb production in PMA-differentiated THP1 cells stimulated by RDG-Adenovirus-GFP)
- Format: cell-based, human
- applied.conditions: Homo sapiens, THP-1, THP1 cells, PMA differentiated, RDG-Adenovirus-GFP 1000 MOI, IFNb AlphaLISA, overnight incubation; read-out: IC50 (μM), Cellular assay for Compounds 95-348
Counter-ions that a name gives are not always drawn.
reported.property: IC50 (µM)

Example results:
CNCC(=O)NCc1[nH]c2c(Cl)c(Cl)ccc2c1-c1cn[nH]c1 [Example 217, formic acid salt] = 2.12
N#CCOc1cc(Cl)c(Cl)c2c1c(-c1cn[nH]c1)c1n2CCN(C(=O)[C@@H]2COCCO2)C1 = 1.19
O=C(Nc1cc(Cl)c(Cl)c2c1c(-c1cn[nH]c1)c1n2CCN(C(=O)CO)C1)C(F)F = 0.412
Clc1ccc2c(-c3cn[nH]c3)c(-c3nnco3)[nH]c2c1Cl = 0.464
CCOc1cc(Cl)c(Cl)c2c1c(-c1cn[nH]c1)c1n2CC[C@@H]1NC(=O)CO = 0.565
CC(=O)NC1CCCn2c1c(-c1cn[nH]c1)c1c(OCC#N)cc(Cl)c(Cl)c12 (stereo not shown) = 2.68
OCC(F)(F)CNc1cc(Cl)c(Cl)c2[nH]cc(-c3cn[nH]c3)c12 = 0.909

A: Clc1cc(NC2COC2)c2c(-c3cn[nH]c3)c[nH]c2c1Cl
B: COCCS(=O)(=O)NC1CCc2c(-c3cn[nH]c3)c3ccc(Cl)c(Cl)c3n2C1 (stereo not shown)
C: FCCNc1cc(Cl)c(Cl)c2[nH]cc(-c3cn[nH]c3)c12
Query :: Parameters: sort_field (IC50), sort_dir (desc). Write out the labels following the order that was asked for.
Result :: B, A, C
(B: 2.49 µM, A: 1.13 µM, C: 0.547 µM)

====

- experimental.system: recombinant human cGAS (Homo sapiens (Human))
- experimental.details: In vitro inhibition assay of cGAS activity (cGAMP production, RapidFire mass spectrometry)
- Type: biochemical
- applied.conditions: 10 nM recombinant human cGAS, 60 nM 75-bp dsDNA, ATP, GTP, room temperature 3 hours, read-out: IC50 (μM), In vitro inhibition assay for Compounds 95-348
Structures can show the parent of a compound that is named as a salt.
reported.property: IC50 (µM)

Example results:
O[C@@H]1C[C@H](Oc2cc(Cl)c(Cl)c3[nH]cc(-c4cn[nH]c4)c23)[C@@H](O)C1 (single isomer, unassigned) [Example 271] = 0.184
O=C(Nc1cc(Cl)c(Cl)c2c1c(-c1cn[nH]c1)c1n2CCN(C(=O)Cc2cnccn2)C1)C(F)F [Example 277] = 0.0445
NC(=O)Cn1cc(-n2cc(-c3cn[nH]c3)c3ccc(Cl)cc32)nn1 [Example 227] = 0.0408
CNCC(=O)NCc1[nH]c2c(Cl)c(Cl)ccc2c1-c1cn[nH]c1 [Example 217, formic acid salt] = 0.0794
FC(F)COc1cc(Cl)c(Cl)c2[nH]cc(-c3cn[nH]c3)c12 [Example 184] = 0.0385

P: CN1CCn2c(c(-c3cn[nH]c3)c3c(OCCCO)cc(Cl)c(Cl)c32)C1=O [Example 339]
Q: COCCOCCC(=O)N1CCn2c(c(-c3cn[nH]c3)c3ccc(Cl)c(Cl)c32)C1 [Example 317]
Query :: Given P and Q , report the one with the higher recorded IC50. Mark your answer with the label of the selected entry.
Result :: Q

1: CC(=O)N[C@H]1Cc2c(-c3cn[nH]c3)c3c(OCC#N)cc(Cl)c(Cl)c3n2C1 [Example 245]
2: OCCCNc1cc(Cl)c(Cl)c2[nH]cc(-c3cn[nH]c3)c12 [Example 144]
Query :: Given 1 and 2 , report the one with the higher recorded IC50. Mark your answer with the label of the selected entry.
Result :: 1

I: CC(=O)Nc1cc(Cl)c(Cl)c2[nH]c(CO)c(-c3cn[nH]c3)c12 [Example 130]
II: CC(=O)N1CCn2c(c(-c3cn[nH]c3)c3c(NC(=O)C(F)F)cc(Cl)c(Cl)c32)C1 [Example 263]
Query :: Given I and II , report the one with the higher recorded IC50. Mark your answer with the label of the selected entry.
Result :: I
